Each entry below carries its reported Monocytes.
Tested on: ICR (CD-1) mice
Experiment: In vivo toxicity in mice (SC, IN, IP routes)
Conditions: SC, 3 doses (1hr, 12hr, 24hr); head doses: RN7-IN10, RN7-IN8 20 mg/kg; RN7-IN9, RN7-IN6 10 mg/kg; day 7; mean±SD, 4 mice
Method: In this study, 4-week old male, pathogen free ICR (CD-1) mice were purchased from InVivos (Lim Chu Kang, Singapore) and used to assess the in vivo toxicity and antibacterial efficacy of the novel peptides, as these animals are by far the most commonly used model for the study of pneumococcal disease ([Chiavolini, Pozzi & Ricci, 2008]). The mice were kept in ventilated polycarbonate cages (12 h light/dark cycle, 20 ± 2 °C and 55% relative humidity). […]
// units = %; emit number, no label

Please review the following examples before continuing.
Substance: FLGGLIKWWPWRR-NH2 [RN7-IN6, hybrid peptide of ranalexin (residues 1-7) and indolicidin (residues 8-13)]
Monocytes [%]: 2.8

Substance: FLGGLIKWPWWPWRR-NH2 [RN7-IN8, hybrid peptide of ranalexin (residues 1-7) and indolicidin (residues 6-13)]
Monocytes [%]: 1.92

Substance: FLGGLIKKWPWWPWRR-NH2 [RN7-IN9, hybrid peptide of ranalexin (residues 1-7) and indolicidin (residues 5-13)]
Monocytes [%]: 1.95

### Prompt Please look up its Monocytes: FLGGLIKWKWPWWPWRR-NH2 [RN7-IN10, hybrid peptide of ranalexin (residues 1-7) and indolicidin (residues 4-13)]
### Response 2.2

These entries and their values trace back to paper PMC5632533.
